Assay: Plasma PK and skin concentration after topical application of gel-cream to shaved backs of rats
Type: in vivo
Details: rat, plasma, topical or ocular, 177.8 mg, rat plasma, 177.8 mg 1% gel-cream topical on 4 cm^2, 10% Transcutol HP
Protocol: In order to assess the effect of the permeation enhancer on API delivery to the skin (topical delivery) and to the plasma (systamic delivery) in vivo, 177.8 mg of the subject topical formulation (177.8 μL of the 1% Compound 1 gel-cream, or about 1.778 mg of Compound 1) was applied to the backs of rats on a 4 cm^2 area of shaved skin. Plasma PK data was obtained during a period of about 24 hours following the topical application. See results in FIG. 9A, and the tables below. […]
readout: Cmax (ng/mL)
Value expressed in ng/mL; do not type the unit.

Data request: Recorded Cmax for CC[C@@H]1C[C@H](NS(=O)(=O)C2CC2)C[C@@H]1c1nnc2cnc3[nH]ccc3n12 [Compound 1] , please?
Data returned: 70.7

###

Experiment: Plasma PK and skin concentration after topical application of gel-cream to shaved backs of rats
Format: in vivo
Settings: rat, skin, topical, 1.778 mg, rat skin, 177.8 mg 1% gel-cream topical, no permeation enhancer; read-out: Skin conc. 24 hr
Procedure: In order to assess the effect of the permeation enhancer on API delivery to the skin (topical delivery) and to the plasma (systamic delivery) in vivo, 177.8 mg of the subject topical formulation (177.8 μL of the 1% Compound 1 gel-cream, or about 1.778 mg of Compound 1) was applied to the backs of rats on a 4 cm^2 area of shaved skin. Plasma PK data was obtained during a period of about 24 hours following the topical application. See results in FIG. 9A, and the tables below. […]
readout: concentration at 24 h (ng/g)
Value expressed in ng/g; do not type the unit.

Data request: Recorded concentration at 24 h for CC[C@@H]1C[C@H](NS(=O)(=O)C2CC2)C[C@@H]1c1nnc2cnc3[nH]ccc3n12 , please?
Data returned: 5340

###

Test: Plasma PK and skin concentration after topical application of gel-cream to shaved backs of rats
Assay type: in vivo
Details: rat, skin, topical, 1.778 mg, rat skin, 177.8 mg 1% gel-cream topical, 10% Transcutol HP; read-out: Skin conc. 24 hr
Method: In order to assess the effect of the permeation enhancer on API delivery to the skin (topical delivery) and to the plasma (systamic delivery) in vivo, 177.8 mg of the subject topical formulation (177.8 μL of the 1% Compound 1 gel-cream, or about 1.778 mg of Compound 1) was applied to the backs of rats on a 4 cm^2 area of shaved skin. Plasma PK data was obtained during a period of about 24 hours following the topical application. See results in FIG. 9A, and the tables below. […]
readout: concentration at 24 h (ng/g)
Value expressed in ng/g; do not type the unit.

Data request: Recorded concentration at 24 h for CC[C@@H]1C[C@H](NS(=O)(=O)C2CC2)C[C@@H]1c1nnc2cnc3[nH]ccc3n12 , please?
Data returned: 25000

###

test: Plasma PK and skin concentration after topical application of gel-cream to shaved backs of rats; type: in vivo; details: rat, skin, topical, 177.8 mg, mean of rats 1-3, Formulation A, 24 hr after dose; read-out: Skin Conc., Mean
readout: concentration at 24 h (ng/g)
Value expressed in ng/g; do not type the unit.

Data request: Recorded concentration at 24 h for CC[C@@H]1CN(C(=O)NCC(F)(F)F)C[C@@H]1c1cnc2cnc3[nH]ccc3n12 , please?
Data returned: 5340

###

Test: Plasma PK and skin concentration after topical application of gel-cream to shaved backs of rats
Assay type: in vivo
Conditions: rat, plasma, topical, 177.8 mg, mean of rats 1-3, Formulation A, 24 hr after dose; read-out: Plasma Conc., Mean
Experimental: In order to assess the effect of the permeation enhancer on API delivery to the skin (topical delivery) and to the plasma (systamic delivery) in vivo, 177.8 mg of the subject topical formulation (177.8 μL of the 1% Compound 1 gel-cream, or about 1.778 mg of Compound 1) was applied to the backs of rats on a 4 cm^2 area of shaved skin. Plasma PK data was obtained during a period of about 24 hours following the topical application. See results in FIG. 9A, and the tables below. […]
readout: concentration at 24 h (ng/mL)
Value expressed in ng/mL; do not type the unit.

Data request: Recorded concentration at 24 h for CC[C@@H]1CN(C(=O)NCC(F)(F)F)C[C@@H]1c1cnc2cnc3[nH]ccc3n12 , please?
Data returned: 0

###

Test: Plasma PK and skin concentration after topical application of gel-cream to shaved backs of rats
Type: in vivo
Details: rat, plasma, topical, 177.8 mg, mean of rats 4-6, Formulation B, 24 hr after dose; read-out: Plasma Conc., Mean
Method: In order to assess the effect of the permeation enhancer on API delivery to the skin (topical delivery) and to the plasma (systamic delivery) in vivo, 177.8 mg of the subject topical formulation (177.8 μL of the 1% Compound 1 gel-cream, or about 1.778 mg of Compound 1) was applied to the backs of rats on a 4 cm^2 area of shaved skin. Plasma PK data was obtained during a period of about 24 hours following the topical application. See results in FIG. 9A, and the tables below. […]
readout: concentration at 24 h (ng/mL)
Value expressed in ng/mL; do not type the unit.

Data request: Recorded concentration at 24 h for CC[C@@H]1CN(C(=O)NCC(F)(F)F)C[C@@H]1c1cnc2cnc3[nH]ccc3n12 , please?
Data returned: 2.44
